Test system: ACHN renal
Test: NCI tumour cell line growth inhibition, 48 h; in the data active means GI50 below about 0.43 µM; inactive means the rest
Possible outcomes: active, inactive

smiles_entry=COc1cc2ncn(-c3cc(OCc4ccccc4S(C)(=O)=O)c(C#N)s3)c2cc1OC target_under_test="ACHN renal" assigned_label=inactive
smiles_entry=CCC(=O)c1ccc2c(c1)N(CCCN1CCN(CCO)CC1)c1ccccc1S2 target_under_test="ACHN renal" assigned_label=inactive
smiles_entry=N=C(N)c1ccc(-c2ccc(-c3ccc(F)cc3)o2)o1 target_under_test="ACHN renal" assigned_label=inactive
smiles_entry=O=[N+]([O-])/C=C/c1ccc([N+](=O)[O-])cc1 target_under_test="ACHN renal" assigned_label=inactive
smiles_entry=COc1ccc(-c2cc(-c3nnc(SCC(=O)Nc4ccc(C(C)=O)cc4)o3)c3ccccc3n2)cc1 target_under_test="ACHN renal" assigned_label=inactive
smiles_entry=COc1ccc(/C=C\c2cc(OC)c(OC)c(OC)c2)cc1OCC(=O)Nc1nc2ccc(OC(F)(F)F)cc2s1 target_under_test="ACHN renal" assigned_label=inactive
smiles_entry=NC(N)=N/N=C/c1c(-c2ccc(Cl)c([N+](=O)[O-])c2)nc2ccccn12 target_under_test="ACHN renal" assigned_label=inactive
smiles_entry=COc1ccc(-n2c(C)nc3c(c(C)nn3-c3ccccc3)c2=O)cc1 target_under_test="ACHN renal" assigned_label=active
smiles_entry=O=C1C=CC(=O)c2c1ncc1c2nc2sccn21 target_under_test="ACHN renal" assigned_label=inactive
smiles_entry=O=[N+]([O-])c1cccc(-c2cc(-c3cc(Br)ccc3O)[nH]n2)c1 target_under_test="ACHN renal" assigned_label=inactive

----------
Test system: CAKI-1 renal
Experiment: NCI tumour cell line growth inhibition, 48 h
VALUE TYPE: TGI (µM)

compound=Oc1cc(Cl)ccc1Cc1ccc(Cl)cc1O qualifier_symbol== reported_result=43
compound=COc1ccc2[nH]cc(-c3nc(-c4c[nH]c5ccncc45)cs3)c2c1 qualifier_symbol== reported_result=9.13
compound=COc1cc2c3c(n(CCCNCCNCCCN)c(=O)c2cc1OC)-c1cc2c(cc1C3=O)OCO2 qualifier_symbol== reported_result=24.1
compound=Cc1nnc2sc(N/N=C/c3ccccc3)nn12 qualifier_symbol=> reported_result=100
compound=Cc1ccc(/C(=C/C=C(C#N)C#N)Sc2ccccn2)cc1 qualifier_symbol== reported_result=11.8
compound=CCOC(=O)c1cnc2cc3cccccc3n2c1=O qualifier_symbol=> reported_result=100
compound="CN1CC2CC(C1)c1cccc(=O)n1C2 (centres undefined)" qualifier_symbol=> reported_result=100
compound=CN1C(=O)C(c2c[nH]c3ccccc23)=C(c2c(-c3c[nH]c4ccccc34)[nH]c3ccccc23)C1=O qualifier_symbol== reported_result=4.63
compound=Cc1ccc2nc(Cl)c(/C=N/N3C(=O)/C(=C/c4ccc(N(C)C)cc4)N=C3c3ccccc3)cc2c1 qualifier_symbol=> reported_result=100
compound=O=C1C[C@H](c2ccccc2)C2(C(=O)c3ccccc3C2=O)[C@H](c2ccccc2)C1 qualifier_symbol=> reported_result=100
compound=COc1cc(OC)cc(-c2cncn2-c2ccc(-c3nc4cc(OC)cc(OC)c4s3)cc2)c1 qualifier_symbol=> reported_result=100
compound="CC1CCC2(CC1)N=C1CCC(C)CC1C1(CCC(C)CC1)N2 (centres undefined)" qualifier_symbol=> reported_result=100
compound=Nc1c(S(=O)(=O)O)cc(Nc2cccc(S(=O)(=O)/C=C/S(=O)(=O)O)c2)c2c1C(=O)c1ccccc1C2=O qualifier_symbol=> reported_result=100
compound=COC(=O)n1c(CBr)c(Br)c2ccccc21 qualifier_symbol== reported_result=49.9
compound=O=C(O)c1ccc(Nc2nc3ccccc3nc2C(=O)O)cc1 qualifier_symbol=> reported_result=100
compound="NC(=O)NCCSC1CCCCC1O (centres undefined)" qualifier_symbol=> reported_result=100
compound=COc1ccc(-n2c(C)nc3c(c(C)nn3-c3ccccc3)c2=O)cc1 qualifier_symbol=> reported_result=50.1
compound="O=C(O)c1ccc(C2C3C=CC(C3)C2[N+](=O)[O-])cc1 (centres undefined)" qualifier_symbol=> reported_result=100
compound=O=C(NN1C(=O)C=CC1=O)c1ccccc1Nc1ccccc1C(=O)NN1C(=O)C=CC1=O qualifier_symbol=> reported_result=100
compound="CCCCCCCCC/C=C1\\CC(CO)(COC(=O)c2ccccc2)OC1=O (centres undefined)" qualifier_symbol== reported_result=52.5
compound="NC(=O)CS(=O)CC(N)C(=O)O (centres undefined)" qualifier_symbol=> reported_result=100
compound=CCOC(=O)[C@H]1Nc2ccc(Cl)cc2[C@H]2c3ccccc3O[C@H]21 qualifier_symbol=> reported_result=100
compound="CC1(C)Cc2c(Br)c(Br)c(Br)c(OCC(O)CN3CCOCC3)c2O1 (centres undefined)" qualifier_symbol== reported_result=27.4
compound=C[C@H](CCC1=NCCN1)[C@H]1CC[C@H]2[C@@H]3CC[C@@H]4C[C@H](O)CC[C@]4(C)[C@H]3C[C@H](O)[C@]12C qualifier_symbol== reported_result=43.8
compound="COc1ccc(C2c3cc4c(cc3OC(N3CCCCC3)C2C)OCO4)cc1 (centres undefined)" qualifier_symbol== reported_result=84.9
compound="CCC(C)C1(O)OC2CC3(C)OC(=CC3=O)/C(C)=C\\C3OC(=O)C1(C)C32 (centres undefined)" qualifier_symbol== reported_result=31.5
compound="CC1=CC2CC(C)C1(C)CCc1ccoc12 (centres undefined)" qualifier_symbol=> reported_result=100
compound=CN(C)S(=O)(=O)c1ccc(Nc2ccc(O)c3c2C(=O)c2c([N+](=O)[O-])ccc(O)c2C3=O)cc1 qualifier_symbol=> reported_result=100
compound="Cc1ccc2[nH]c(C(=O)NN3C(=O)C(C)SC34CCCCC4C)c(-c3ccccc3)c2c1 (centres undefined)" qualifier_symbol== reported_result=40.7
compound=O=[N+]([O-])/C=C/c1ccc([N+](=O)[O-])cc1 qualifier_symbol== reported_result=21.1
compound=COc1ccc(/C=C\c2cc(OC)c(OC)c(OC)c2)cc1OCC(=O)Nc1nc2ccc(OC(F)(F)F)cc2s1 qualifier_symbol=> reported_result=100
compound=NCCCCNC1(c2cc3ccccc3s2)CCCCC1 qualifier_symbol== reported_result=28.1
compound=COc1cc(CNc2nc3cc(C(F)(F)F)ccc3nc2C)cc(OC)c1OC qualifier_symbol== reported_result=96.4
compound=COc1cc(-c2nc3nc(N4CCN(C)CC4)ccc3[nH]2)c(OC)c2[nH]c(COC(C)=O)nc12 qualifier_symbol=> reported_result=100

----------
System: DLD-1 colon
Experiment: NCI tumour cell line growth inhibition, 48 h
VALUE TYPE: TGI

compound=COc1ccccc1NC(=O)C1=C(C)NC(C)=C(C(=O)Nc2ccccc2OC)C1c1cccc2c1OCO2 reported_result="> 100 µM"
compound="CC1CC2(CCC1OCc1ccccc1)OCCO2 (stereo not given)" reported_result="> 100 µM"
compound=CCC[CH2][Sn]1([CH2]CCC)[O]C(=O)CN=Cc2ccccc2[O]1 reported_result="> 100 µM"
compound="CN1CCCCC(C(O)(c2ccccc2)c2ccccc2)C1=O (stereo not given)" reported_result="> 100 µM"
compound=Cc1c(O)c(=O)ccn1CCO reported_result="> 100 µM"

----------
Listing: TGI of selected compounds
Test system: SF-295 CNS
Assay: NCI tumour cell line growth inhibition, 48 h
VALUE TYPE: TGI (µM)

compound="CN(C)CCOC1(CC2CCCCC2)CCC(C(C)(C)C)CC1 (stereo not given)" qualifier_symbol== reported_result=12
compound=CCOC(=O)N(C)C1(c2ccccc2)CCN(CCCC(=O)c2ccc(F)cc2)CC1 qualifier_symbol=> reported_result=100
compound=CC(=O)Nc1ccc(-c2nnc(SCC(=O)Nc3ccccc3C)o2)cc1 qualifier_symbol=> reported_result=100
compound="CC(C)CCC[C@@H](C)[C@H]1CCC2C3=CCC4C(=O)C=CC(=O)C4C3CC[C@@]21C (stereo not given in full)" qualifier_symbol== reported_result=0.576
compound=O=C(O)c1ccc(Nc2nc3ccccc3nc2C(=O)O)cc1 qualifier_symbol=> reported_result=100
compound=COc1ccc(-c2csc3c2-n2cccc2C3=O)cc1O qualifier_symbol=> reported_result=100
compound=CO/N=C(/COc1c(-c2ccccc2)oc2ccccc2c1=O)c1ccc(F)cc1 qualifier_symbol=> reported_result=100
compound="NC1=NC(c2ccc(F)cc2)C2=C(N1)c1ccc3ccccc3c1OCC2 (stereo not given)" qualifier_symbol== reported_result=48.4
compound="CC1(C)Cc2c(Br)c(Br)c(Br)c(OCC(O)CN3CCOCC3)c2O1 (stereo not given)" qualifier_symbol== reported_result=20.3
compound=CC[C@@H]1CC[C@@H]2[C@H](CC[C@]3(C)[C@@H](OS(=O)(=O)c4ccc(C)cc4)CC[C@@H]23)[C@H]1CO qualifier_symbol=> reported_result=100
compound=COc1cc(/C=C/C(=O)OC[C@H](Br)[C@H](OC(C)=O)c2ccc3c(c2)OCO3)cc(OC)c1OC qualifier_symbol=> reported_result=100
compound=O=c1[nH]c2ccccc2c2oc(-c3ccccc3)nc12 qualifier_symbol== reported_result=57.6
compound=O=C(CCCn1ccnc1[N+](=O)[O-])NCCn1ccnc1[N+](=O)[O-] qualifier_symbol=> reported_result=100
compound="CCOC(=O)C(NCc1cccc(C(F)(F)F)c1)(NC(=O)c1ccccc1)C(F)(F)F (stereo not given)" qualifier_symbol=> reported_result=100
compound="CNCCOC(=O)/C=C1/CCC2C(C(O)CC3C(C)(C(=O)OC)CCCC23C)C1C (stereo not given)" qualifier_symbol== reported_result=0.0452
compound=CCCCCCN1CCN(Cc2ccc(N(CC)CC)cc2)C(=O)C1=O qualifier_symbol=> reported_result=100
compound="CN(C)CC(NC(NCS)C(=O)NCCNc1ccc(NCCNC(=O)C(NCS)NC(CN(C)C)OCCl)c2c1C(=O)c1c(O)ccc(O)c1C2=O)OCCl (stereo not given)" qualifier_symbol== reported_result=1.39
compound=COc1cc(-c2n/c(=C\c3c(O)[nH]c4ccccc34)cc3c2=Nc2ccccc2-3)cc(OC)c1OC qualifier_symbol=> reported_result=38.4
compound=O=C(NN1C(=O)C=CC1=O)c1ccccc1Nc1ccccc1C(=O)NN1C(=O)C=CC1=O qualifier_symbol=> reported_result=100
compound=O=C(/C=C\c1ccc2ccccc2n1)c1cc(Cl)ccc1O qualifier_symbol== reported_result=44.2
